Each entry below carries its recorded CC50.
# measurement.protocol: Functional CPE-based assay to measure dose dependent changes in cell viability from drug treatment in Vero E6 miRFP670 cells (cotreated with P-gp inhibitor, CP100356). Cells are treated with antiviral candidates that have been serially diluted. Cytotoxicity is reported via analysis of MTS assays in uninfected cells. The assay has been performed by KU Leuven.
# Format: toxicity, Vero C1008
# condition.description: chlorocebus sabaeus, Vero E6 miRFP670 cells, with CP100356 (P-gp inhibitor, concentration not stated); p-gp concentration 500 nM

{"smiles.str": "Cc1nc2c(C(=O)Nc3ccc4c(c3)CNC4)cc(Cl)cc2[nH]1", "CC50": "4.77 µM"}

## Input Which CC50 reading was recorded for the molecule O=C(NC1CCOCC1)[C@H](Nc1ccc2c(c1)CNC2)c1cc(Cl)cc(C2CC2)c1 ?
## Output 49.9 µM

## Input O=C(Nc1ccc2c(c1)CNC2)c1cc(Cl)cc2cn[nH]c12 , same question.
## Output > 50 µM

## Input Next molecule: N[C@H]1Cc2ccc(NC(=O)c3cccc4c3CC(=O)N4)cc2C1
## Output > 50 µM

## Input For Cn1cc(CCc2nc3c(C(=O)Nc4ccc5c(c4)CNC5)cc(Cl)cc3[nH]2)cn1 then?
## Output > 50 µM

* * *

# measurement.protocol: Functional CPE-based assay to measure dose dependent changes in cell viability from drug treatment in Vero E6 miRFP670 cells (cotreated with P-gp inhibitor, CP100356). Cells are treated with antiviral candidates that have been serially diluted. Cytotoxicity is reported via analysis of MTS assays in uninfected cells. The assay has been performed by KU Leuven.
# Type: toxicity, Vero C1008
# condition.description: chlorocebus sabaeus, vero c1008; p-gp concentration 500 nM
// returns Not fulfilled unless CC50 is strictly below 40 µM, in which case Fulfilled

# example entries with known answers
{"smiles.str": "C[C@@]1(O)[C@H](O)[C@@H](CO)O[C@H]1n1ccc2c(N)ncnc21", "class.name": "Not fulfilled"}
{"smiles.str": "Cc1cccc(-c2nc3c(C(=O)Nc4ccc5c(c4)CNC5)cc(Cl)cc3[nH]2)c1O", "class.name": "Fulfilled"}
{"smiles.str": "CC(C)NC(=O)[C@H](Nc1ccc2c(c1)CNC2)c1cc(Cl)cc2[nH]ncc12", "class.name": "Not fulfilled"}
{"smiles.str": "C#C[C@@]1(O)[C@H](O)[C@@H](CO)O[C@H]1n1ccc2c(N)ncnc21", "class.name": "Fulfilled"}

Please examine the following record next.
## Input Strictly below 40 µM: is that where CC50 of O=C(Nc1ccc2c(c1)CNC2)c1cc(F)cc2[nH]c(-c3ccccc3)nc12 sits?
## Output Fulfilled

* * *

# measurement.protocol: Functional CPE-based assay to measure dose dependent changes in cell viability from drug treatment in Vero E6 miRFP670 cells. Cells are treated with antiviral candidates that have been serially diluted. Cytotoxicity is reported via analysis of MTS assays in uninfected cells. The assay has been performed by KU Leuven.
# Assay type: toxicity, Vero C1008
# condition.description: chlorocebus sabaeus, Vero E6 miRFP670 cells
experimental.endpoint: CC50 (µM)
// units = µM; emit number, no label

Below, 2 compounds whose answers are already recorded.
{"smiles.str": "CC(C)OC(=O)Nc1cc(Cl)cc(C(=O)Nc2cccc(CN)c2)c1", "test.value": 20.5}
{"smiles.str": "O=C(NCC1CC1)c1cc(Cl)ccc1NS(=O)(=O)c1ccc(Oc2ccccc2Cl)cc1", "test.value": 5.46}

## Input What does the record list as CC50 for O=C(Nc1ccc2c(c1)CNC2)c1cc(Cl)cc2c1CCC2 ?
## Output 18.4

* * *

# measurement.protocol: Functional metabolic assay to measure dose dependent changes in cell viability from drug treatment in Vero E6/TMPRSS2 cells. Cells are treated with antiviral candidates that have been serially diluted. Cytotoxicity is reported via measuring absorbance and analysis of MTT/MTS assays in uninfected cells. The assay has been performed by Icahn School of Medicine at Mount Sinai.
# Assay type: toxicity, cell-based, VeroE6/TMPRSS2
# condition.description: chlorocebus sabaeus, veroe6/tmprss2
experimental.endpoint: CC10

Example compounds with recorded CC10:
{"smiles.str": "O=C(Nc1cc(Cl)cc(C(=O)Nc2cccc(-c3nnn[nH]3)c2)c1)OCc1ccccc1", "experimental.endpoint": "CC10", "test.value": "> 50 µM"}
{"smiles.str": "Cc1ccc(NC(=O)c2cc(Cl)cc(NC(=O)OCc3ccccc3)c2)cc1CN", "experimental.endpoint": "CC10", "test.value": "8.104 µM"}
{"smiles.str": "C[C@@]1(O)[C@H](O)[C@@H](CO)O[C@H]1n1ccc2c(N)ncnc21", "experimental.endpoint": "CC10", "test.value": "> 10 µM"}
{"smiles.str": "CCc1cc(C(=O)Nc2cccc(CN)c2)sc1-c1ccc(Cl)cc1", "experimental.endpoint": "CC10", "test.value": "15.317 µM"}

## Input What measured CC10 goes with O=C(O)c1cc(Cl)ccc1NS(=O)(=O)c1ccc(Oc2ccccc2Cl)cc1 ?
## Output > 50 µM

## Input Check Cc1cc(-c2ccc([C@@H](NC(=O)OCc3ccccc3)C(=O)Nc3cccc(CN)c3)cc2)cs1 too.
## Output 7.281 µM

## Input Proceed to CC(C)CNC(=O)c1cc(Cl)ccc1NS(=O)(=O)c1ccc(Oc2ccccc2Cl)cc1
## Output > 50 µM

## Input Now give it for NCc1ccc(-c2ncc(OCC3CCNCC3)nc2-c2ccc(-c3ccoc3)cc2)cc1 too.
## Output > 50 µM

## Input Subsequent entry: Cc1[nH]c2ccccc2c1CN1CCC(c2c[nH]c3ncccc23)CC1
## Output > 50 µM

* * *

# measurement.protocol: Functional CPE-based assay to measure dose dependent changes in cell viability from drug treatment in Vero E6 miRFP670 cells (cotreated with P-gp inhibitor, CP100356). Cells are treated with antiviral candidates that have been serially diluted. Cytotoxicity is reported via analysis of MTS assays in uninfected cells. The assay has been performed by KU Leuven.
# Assay type: toxicity, Vero C1008
# condition.description: chlorocebus sabaeus, Vero E6 miRFP670 cells, with CP100356 (P-gp inhibitor, concentration not stated); p-gp concentration 500 nM
experimental.endpoint: CC50

{"smiles.str": "CCCNC(=O)[C@H](Nc1ccc2c(c1)CNC2)c1cc(Cl)cc2[nH]ncc12", "CC50": "> 50 µM"}
{"smiles.str": "Cc1cc(C(=O)Nc2ccc3c(c2)CNC3)c2cn[nH]c2c1", "CC50": "> 50 µM"}
{"smiles.str": "N#Cc1cc2c(cc1NC(=O)c1cc(F)cc3[nH]ncc13)CNC2", "CC50": "> 50 µM"}

## Input Need CC50 of COCCNC(=O)[C@H](Nc1ccc2c(c1)CNC2)c1cc(Cl)cc(C2CC2)c1 , thanks.
## Output > 50 µM

## Input What do you have for CCc1cc(Br)cc2c(Cc3ccc(-c4nnn[nH]4)cc3)c[nH]c12 ?
## Output 21.7 µM

## Input Same for O=C(NCC(F)F)[C@H](Nc1cnc2c(c1)CNC2)c1cc(Cl)cc(C2CC2)c1
## Output > 50 µM

## Input # repeat for O=C(Nc1cc(Cl)cc(-c2ccc3[nH]c(C(=O)O)cc3c2)c1)OCc1ccccc1
## Output 25.2 µM

## Input Let us now turn to CC(C)(C)OC(=O)N1Cc2ccc(N[C@H](C(=O)O)c3cc(Cl)cc4[nH]ncc34)cc2C1
## Output > 50 µM

## Input What do you get for O=C(Nc1cc(Br)c2c(c1)CNC2)c1cc(F)cc2[nH]ncc12 ?
## Output > 50 µM

## Input Same thing, different molecule: CCCn1cc2c(C(=O)Nc3ccc4c(c3)CNC4)cc(Cl)cc2n1
## Output 17.4 µM

## Input Again, but for FC(F)(F)Oc1cc(Cl)cc2c(Cc3ccc(-c4nnn[nH]4)cc3)c[nH]c12
## Output 30.6 µM

## Input What about O=C1Cc2c(cc(Br)cc2C(=O)Nc2ccc3c(c2)CNC3)N1 ?
## Output > 50 µM

## Input Moving on to the next molecule: O=C(Nc1ccc2c(c1)CNC2)c1cccc2[nH]c(=O)[nH]c12
## Output > 50 µM

## Input Query CNC(=O)[C@H](Nc1ccc2c(c1)CNC2)c1cc(Cl)cc(C2CC2)c1 next
## Output > 50 µM

## Input Input COc1cc(N[C@@H](C(=O)c2c[nH]c3ccc(OC(F)(F)F)cc23)c2ccc(Cl)cc2OC)cc(S(C)(=O)=O)c1
## Output 1.49 µM

## Input Quick one: O=C(Nc1cc2c(c(C3=CCS(=O)(=O)CC3)c1)CNC2)c1cc(F)cc2[nH]ncc12
## Output > 50 µM

## Input How about O=C(Nc1ccc2c(c1)CNC2)c1cccc2c1[C@]1(CCNC1)C(=O)N2 ?
## Output > 50 µM

## Input Also O=C(Nc1ccc2c(c1)CNC2)c1cc(Cl)cc2[nH]c(-c3cc(C4CC4)[nH]n3)nc12 , if possible.
## Output 1.51 µM
